The origin of these recorded values is PubChem BioAssay AID2060493.

Tested on: 616215-338-R-J1-PDC tumor spheroids, viability;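 further: spheroids exposed to agents for 7 days before readout; percent viability relative to DMSO vehicle control wells taken as 100%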
test_protocol: Anticancer human tumor 616215-338-R-J1-PDC patient-derived colon adenocarcinoma cell line growth inhibition [GQUAD]
cond: second compound 1 µM; first compound 0.0316 µM; active compounds read low; spheroids with HUVEC and MSC
observed_property: viability, T/C (%)
Give the number; % is assumed, so skip it.

O=c1[nH]cc(F)c(=O)[nH]1 + CN(C)c1ccc(Nc2c3ccc(NC(=O)CCN4CCCC4)cc3nc3cc(NC(=O)CCN4CCCC4)ccc23)cc1	101
CC1COCCN1c1cc(C2(S(C)(=N)=O)CC2)nc(-c2ccnc3[nH]ccc23)n1 (stereo unspecified) + Cc1[nH]c2ccc(F)cc2c1-c1nc2c3cccnc3c3ncccc3c2[nH]1	90.7
CCc1c2c(nc3ccc(O)cc13)-c1cc3c(c(=O)n1C2)COC(=O)[C@]3(O)CC + Cc1[nH]c2ccc(F)cc2c1-c1nc2c3cccnc3c3ncccc3c2[nH]1	28.5
O=c1[nH]cc(F)c(=O)[nH]1 + Cc1cnc(CNC(=O)c2c(=O)c3ccc(N4CCCN(C)CC4)nc3n3c2sc2ccccc23)cn1	32.4

Q. Please report the measured viability, T/C for CC(C)(O)C1CCC(Nc2ccc3ncc(-c4cccc(C(F)(F)F)c4)n3n2)CC1 (stereo unspecified) + CN(C)c1ccc(Nc2c3ccc(NC(=O)CCN4CCCC4)cc3nc3cc(NC(=O)CCN4CCCC4)ccc23)cc1
A. 93.6

Q. Please report the measured viability, T/C for CC(=O)O[C@H]1C(=O)[C@@]2(C)[C@H]([C@H](OC(=O)c3ccccc3)[C@]3(O)C[C@H](OC(=O)[C@H](O)[C@@H](NC(=O)c4ccccc4)c4ccccc4)C(C)=C1C3(C)C)[C@]1(OC(C)=O)CO[C@@H]1C[C@@H]2O + Cc1[nH]c2ccc(F)cc2c1-c1nc2c3cccnc3c3ncccc3c2[nH]1
A. 19.6

Q. Please report the measured viability, T/C for Cc1cccc(N(C)C(=O)C2C(O)CCN2c2nc(C)cc(C(F)(F)F)c2C#N)c1 (stereo unspecified) + Cc1cnc(CNC(=O)c2c(=O)c3ccc(N4CCCN(C)CC4)nc3n3c2sc2ccccc23)cn1
A. 32.6

Q. Please report the measured viability, T/C for Cc1cccc(N(C)C(=O)C2C(O)CCN2c2nc(C)cc(C(F)(F)F)c2C#N)c1 (stereo unspecified) + CN(C)c1ccc(Nc2c3ccc(NC(=O)CCN4CCCC4)cc3nc3cc(NC(=O)CCN4CCCC4)ccc23)cc1
A. 100

Q. Please report the measured viability, T/C for O=C(c1cc(Cc2n[nH]c(=O)c3ccccc23)ccc1F)N1CCN(C(=O)C2CC2)CC1 + Cc1[nH]c2ccc(F)cc2c1-c1nc2c3cccnc3c3ncccc3c2[nH]1
A. 98.8

Q. Please report the measured viability, T/C for CC1COCCN1c1cc(-c2ccnn2C)c2ccnc(-c3ccn[nH]3)c2n1 (stereo unspecified) + CN(C)c1ccc(Nc2c3ccc(NC(=O)CCN4CCCC4)cc3nc3cc(NC(=O)CCN4CCCC4)ccc23)cc1
A. 90.1

Q. Please report the measured viability, T/C for C=CC(=O)N1CCN(c2nc(=O)n(-c3c(C)ccnc3C(C)C)c3nc(-c4c(O)cccc4F)c(F)cc23)C(C)C1 (stereo unspecified) + CN(C)c1ccc(Nc2c3ccc(NC(=O)CCN4CCCC4)cc3nc3cc(NC(=O)CCN4CCCC4)ccc23)cc1
A. 98.7
